Documented composite z-score across a set of molecules
- measuredTarget: Neurogenic locus notch homolog protein 3 (Homo sapiens) (UniProt Q9UM47)
- Sequence (Q9UM47 whole entry, looked up): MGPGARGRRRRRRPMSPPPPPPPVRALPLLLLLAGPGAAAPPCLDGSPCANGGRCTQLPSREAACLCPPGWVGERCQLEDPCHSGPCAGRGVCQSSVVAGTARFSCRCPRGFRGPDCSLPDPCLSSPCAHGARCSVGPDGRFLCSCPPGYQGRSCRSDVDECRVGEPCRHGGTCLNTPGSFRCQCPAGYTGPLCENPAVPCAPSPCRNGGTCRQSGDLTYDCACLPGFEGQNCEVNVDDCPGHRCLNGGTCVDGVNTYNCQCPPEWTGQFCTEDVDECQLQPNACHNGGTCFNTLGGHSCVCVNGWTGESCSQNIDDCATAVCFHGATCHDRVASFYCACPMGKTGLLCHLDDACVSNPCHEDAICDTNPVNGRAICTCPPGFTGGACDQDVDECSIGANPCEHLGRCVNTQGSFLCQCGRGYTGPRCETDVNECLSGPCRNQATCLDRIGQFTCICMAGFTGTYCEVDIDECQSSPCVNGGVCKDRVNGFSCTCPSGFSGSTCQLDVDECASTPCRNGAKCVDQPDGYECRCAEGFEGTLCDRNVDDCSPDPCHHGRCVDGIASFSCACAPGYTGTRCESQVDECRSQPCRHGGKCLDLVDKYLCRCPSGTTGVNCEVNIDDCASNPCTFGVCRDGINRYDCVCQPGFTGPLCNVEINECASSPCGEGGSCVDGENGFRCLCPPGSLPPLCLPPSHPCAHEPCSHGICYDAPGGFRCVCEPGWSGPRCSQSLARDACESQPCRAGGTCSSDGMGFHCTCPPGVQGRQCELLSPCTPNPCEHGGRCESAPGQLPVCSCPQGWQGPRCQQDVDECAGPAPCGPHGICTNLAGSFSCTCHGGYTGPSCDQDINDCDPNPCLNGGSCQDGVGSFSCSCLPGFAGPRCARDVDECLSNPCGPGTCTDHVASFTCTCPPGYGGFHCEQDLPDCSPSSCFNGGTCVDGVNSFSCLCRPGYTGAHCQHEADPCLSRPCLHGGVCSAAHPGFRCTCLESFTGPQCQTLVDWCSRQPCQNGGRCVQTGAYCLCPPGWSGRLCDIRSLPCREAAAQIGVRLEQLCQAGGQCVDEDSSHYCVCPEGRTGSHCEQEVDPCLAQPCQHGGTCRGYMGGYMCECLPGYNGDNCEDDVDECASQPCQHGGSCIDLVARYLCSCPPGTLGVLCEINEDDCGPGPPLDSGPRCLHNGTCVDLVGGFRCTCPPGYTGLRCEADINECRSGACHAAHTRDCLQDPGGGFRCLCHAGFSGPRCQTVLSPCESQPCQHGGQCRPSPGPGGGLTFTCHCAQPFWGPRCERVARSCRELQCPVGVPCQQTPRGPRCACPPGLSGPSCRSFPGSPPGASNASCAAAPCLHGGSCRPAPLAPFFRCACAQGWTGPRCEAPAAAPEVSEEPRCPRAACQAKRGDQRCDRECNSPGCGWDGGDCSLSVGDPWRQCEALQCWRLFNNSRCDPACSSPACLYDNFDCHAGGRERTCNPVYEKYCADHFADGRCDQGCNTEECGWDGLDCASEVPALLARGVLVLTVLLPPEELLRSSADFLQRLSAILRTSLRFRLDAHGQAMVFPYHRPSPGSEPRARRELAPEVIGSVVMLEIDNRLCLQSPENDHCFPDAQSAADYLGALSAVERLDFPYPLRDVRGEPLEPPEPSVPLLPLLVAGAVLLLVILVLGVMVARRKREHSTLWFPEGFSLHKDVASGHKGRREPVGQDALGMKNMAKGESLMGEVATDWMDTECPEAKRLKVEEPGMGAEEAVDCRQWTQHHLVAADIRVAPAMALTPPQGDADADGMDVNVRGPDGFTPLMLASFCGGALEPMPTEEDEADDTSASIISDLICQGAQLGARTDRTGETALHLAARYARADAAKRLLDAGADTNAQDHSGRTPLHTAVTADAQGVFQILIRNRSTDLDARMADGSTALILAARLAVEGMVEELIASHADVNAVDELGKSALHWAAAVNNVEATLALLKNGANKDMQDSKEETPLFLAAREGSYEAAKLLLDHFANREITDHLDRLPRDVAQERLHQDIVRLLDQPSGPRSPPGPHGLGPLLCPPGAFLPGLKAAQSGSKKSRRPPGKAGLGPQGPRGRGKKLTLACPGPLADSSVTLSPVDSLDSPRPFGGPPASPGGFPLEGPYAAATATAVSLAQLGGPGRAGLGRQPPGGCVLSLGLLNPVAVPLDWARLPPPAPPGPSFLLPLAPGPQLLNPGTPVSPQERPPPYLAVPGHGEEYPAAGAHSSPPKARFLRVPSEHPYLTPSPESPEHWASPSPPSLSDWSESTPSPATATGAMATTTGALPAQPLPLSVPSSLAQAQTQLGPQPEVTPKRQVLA
- test: NOTCH3 binders on small-molecule microarray, primary screen, biochemical, 635/667 nm fluorescence (AID 1096)
- measurementContext: NOTCH3 binding, 635 nm fluorescence, higher = more signal
Give the figure only, with no unit attached.

For orientation, consider the following solved cases.
1. [N-]=[N+]=NCc1ccccc1C[C@]1(C(=O)O)N=C(c2ccc(OCCCO)cc2)O[C@H]1c1ccccc1 0.204
2. O=C1C[C@@](C(=O)NC2CC2)(c2ccc([N+](=O)[O-])cc2)[C@@H](c2ccc(CO)cc2)N1CC12CC3CC(CC(C3)C1)C2 1.14

Next up:
Form field - read-out: composite z-score; system: Neurogenic locus notch homolog protein 3 (Homo sapiens) (UniProt Q9UM47); submitted item: C=CCOC(=O)[C@H]1[C@@H]2C(=O)O[C@@H](c3ccccc3)[C@@H](c3ccccc3)N2[C@@H](c2ccc(OCCOC(=O)[C@@H]3C[C@@H]4C(=O)NCC(=O)N4[C@@H]3c3ccc(O)cc3)cc2)[C@]12C(=O)Nc1ccccc12
1.12
